measurement_target: Dual specificity protein phosphatase 1 (Homo sapiens, UniProt P28562)
Sequence (P28562 whole entry): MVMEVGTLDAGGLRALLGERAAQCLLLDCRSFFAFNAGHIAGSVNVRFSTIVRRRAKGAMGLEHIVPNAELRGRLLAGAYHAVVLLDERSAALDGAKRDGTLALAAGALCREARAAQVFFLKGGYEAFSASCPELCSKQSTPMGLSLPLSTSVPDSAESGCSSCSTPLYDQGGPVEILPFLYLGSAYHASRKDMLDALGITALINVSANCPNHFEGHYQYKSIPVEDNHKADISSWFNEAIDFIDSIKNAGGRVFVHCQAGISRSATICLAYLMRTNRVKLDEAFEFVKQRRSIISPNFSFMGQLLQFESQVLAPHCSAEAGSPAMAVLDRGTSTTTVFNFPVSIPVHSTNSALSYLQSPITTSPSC
reported_metric: IC50

Look up and report measured IC50 (Dual specificity protein phosphatase 1 (Homo sapiens, UniProt P28562)) for the following molecule: O=C1C=Cc2ccccc2C1=O [1,2-dihydronaphthalene-1,2-dione]
18.4 µM

Answer briefly: IC50 recorded on Dual specificity protein phosphatase 1 (Homo sapiens, UniProt P28562) for N#CC(C(=O)CSc1nnc(Cc2cccs2)n1C1CCCCC1)c1nc2ccccc2[nH]1 (centres undefined)
> 50 µM

Consider the molecule COC(=O)N(c1ccc(OC)cc1)P1(=S)OCCC(C)O1 (centres undefined) tested on Dual specificity protein phosphatase 1 (Homo sapiens, UniProt P28562); state its IC50.
> 50 µM

Lab note: record IC50 of CCCCCC1CCC(C(=O)O)CC1 (centres undefined) tested on Dual specificity protein phosphatase 1 (Homo sapiens, UniProt P28562).
> 50 µM

Lab note: Dual specificity protein phosphatase 1 (Homo sapiens, UniProt P28562) assay, enter IC50 for COc1ccc(C(=O)CSc2nnc(CNC(=O)c3ccc(OC)c(OC)c3)n2C)cc1 here
> 50 µM

Identify measured IC50 obtained with Dual specificity protein phosphatase 1 (Homo sapiens, UniProt P28562) for O=C(Nc1ccc2nc(-c3ccco3)c(-c3ccco3)nc2c1)N1CCCCCC1 .
12.3 µM

State, for Dual specificity protein phosphatase 1 (Homo sapiens, UniProt P28562), measured IC50 of the molecule listed here: CCn1cc(C(=O)NC2CCC(C)CC2)c(=O)c2cc(S(=O)(=O)N3CCCCC3)ccc21 (centres undefined)
48.6 µM

Report value only: IC50, Dual specificity protein phosphatase 1 (Homo sapiens, UniProt P28562), O=C(Nc1cccc(-c2nc3ccccc3[nH]2)c1)c1cccc(NC(=O)c2ccco2)c1
> 50 µM

Supply IC50 measured with Dual specificity protein phosphatase 1 (Homo sapiens, UniProt P28562) for O=C(c1cccn2c(=O)c3ccc(Cl)cc3nc12)N1CCN(Cc2ccc3c(c2)OCO3)CC1 .
> 50 µM

====

measurement_target: Dual specificity protein phosphatase 1 (Homo sapiens, UniProt P28562)
Sequence (P28562 whole entry): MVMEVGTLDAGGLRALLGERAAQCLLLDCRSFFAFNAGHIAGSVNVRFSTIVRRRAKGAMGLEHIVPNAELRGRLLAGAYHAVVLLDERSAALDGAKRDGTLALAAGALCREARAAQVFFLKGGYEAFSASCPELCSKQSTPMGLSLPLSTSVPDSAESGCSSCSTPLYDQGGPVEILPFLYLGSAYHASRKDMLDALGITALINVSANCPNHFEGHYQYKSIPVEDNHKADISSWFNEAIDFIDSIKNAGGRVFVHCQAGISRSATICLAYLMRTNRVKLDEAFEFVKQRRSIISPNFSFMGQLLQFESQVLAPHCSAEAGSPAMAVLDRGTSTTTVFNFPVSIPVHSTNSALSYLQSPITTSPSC
method_notes: concentration-response of DUSP1 blockers – biochemical, in vitro, confirmation, dose response (AID 551)
stated_conditions: pH 7; 22 °C
reported_metric: pIC50
Kindly note that pIC50 refers to -log10 of the concentration in mol/L and answer with the value alone.

Give recorded pIC50. CCn1nc(-c2ccccc2)nc2c(=O)n(C)c(=O)nc1-2
6.71

Please indicate pIC50 recorded for CCOc1ccc(-c2cc3nc(C4CCN(C(=O)OC(C)(C)C)CC4)c(C(=O)O)cn3n2)cc1
4.82

Indicate the recorded pIC50 value for this compound: CCCSc1nnc(NC(=O)c2sc3nc(-c4cccs4)ccc3c2N)s1
4.91

Return the recorded pIC50 value; entry: FC(F)(F)c1ccc(N2CCOCC2)c(Nc2nc3ccccc3n3cnnc23)c1
4.64

Tell us which pIC50 value is on record for CCn1c(SCC(=O)Nc2ccc3c(c2)c2ccccc2n3CC)nnc1-c1ccco1
4.94
